# assay-protocol: Plasma pharmacokinetics of GEB constituents after oral GEB extract in normal and MCAO rats (UPLC-MS/MS, non-compartmental)
# experimental-setup: plasma, MCAO rats, oral GEB extract 4.8 g/kg, n = 8
Reported T1/2 by item:
Give the number; h is assumed, so skip it.

Sample records with T1/2:
compound	reported-property	endpoint-result
N[C@@H](CCC(=O)N[C@@H](CSCc1ccc(O)cc1)C(=O)NCC(=O)O)C(=O)O [4-HBG, S-(4-hydroxybenzyl) glutathione]	T1/2	2.03
O=C(O)CC(O)(CC(=O)OCc1ccc(O[C@@H]2O[C@H](CO)[C@@H](O)[C@H](O)[C@H]2O)cc1)C(=O)O (stereo partly drawn)	T1/2	1.95
O=C(O)CC(O)(CC(=O)OCc1ccc(O[C@@H]2O[C@H](CO)[C@@H](O)[C@H](O)[C@H]2O)cc1)C(=O)OCc1ccc(O[C@@H]2O[C@H](CO)[C@@H](O)[C@H](O)[C@H]2O)cc1 (stereo partly drawn)	T1/2	2.16

According to the records, this compound OCc1ccc(O[C@@H]2O[C@H](CO)[C@@H](O)[C@H](O)[C@H]2O)cc1 displays T1/2 of 0.58

Lab book: T1/2 of O=C(CC(O)(CC(=O)OCc1ccc(O[C@@H]2O[C@H](CO)[C@@H](O)[C@H](O)[C@H]2O)cc1)C(=O)OCc1ccc(O[C@@H]2O[C@H](CO)[C@@H](O)[C@H](O)[C@H]2O)cc1)OCc1ccc(O[C@@H]2O[C@H](CO)[C@@H](O)[C@H](O)[C@H]2O)cc1 noted as 1.41

So, O=C(CC(O)(CC(=O)OCc1ccc(O[C@@H]2O[C@H](CO)[C@@H](O)[C@H](O)[C@H]2O)cc1)C(=O)O)OCc1ccc(O[C@@H]2O[C@H](CO)[C@@H](O)[C@H](O)[C@H]2O)cc1 ? Its T1/2 was 2.35

====

# assay-protocol: in vivo
# experimental-setup: male, Sprague-Dawley, rat, in vivo, po, 4.8 g/kg
reported-property: Cmax (ng/mL)
Response body: numeric value in ng/mL, unit text excluded.

The molecule listed as OCc1ccc(O[C@@H]2O[C@H](CO)[C@@H](O)[C@H](O)[C@H]2O)cc1 has a reported Cmax of 6620

====

# assay-protocol: Plasma pharmacokinetics of GEB constituents after oral GEB extract in normal and MCAO rats (UPLC-MS/MS, non-compartmental)
# experimental-setup: plasma, MCAO rats, oral GEB extract 4.8 g/kg, n = 8
Each entry below lists one item and its recorded Tmax value.
Field format: number, assumed min, no unit text.

The measured Tmax associated with N[C@@H](CCC(=O)N[C@@H](CSCc1ccc(O)cc1)C(=O)NCC(=O)O)C(=O)O [4-HBG, S-(4-hydroxybenzyl) glutathione] reads 225

Field Tmax (entry O=C(O)CC(O)(CC(=O)OCc1ccc(O[C@@H]2O[C@H](CO)[C@@H](O)[C@H](O)[C@H]2O)cc1)C(=O)OCc1ccc(O[C@@H]2O[C@H](CO)[C@@H](O)[C@H](O)[C@H]2O)cc1 (stereo partly drawn) ) reads 43.2

The measured Tmax associated with O=C(CC(O)(CC(=O)OCc1ccc(O[C@@H]2O[C@H](CO)[C@@H](O)[C@H](O)[C@H]2O)cc1)C(=O)OCc1ccc(O[C@@H]2O[C@H](CO)[C@@H](O)[C@H](O)[C@H]2O)cc1)OCc1ccc(O[C@@H]2O[C@H](CO)[C@@H](O)[C@H](O)[C@H]2O)cc1 reads 46.8

====

Measured AUC0−∞ of individual entries
# assay-protocol: Plasma pharmacokinetics of GEB constituents after oral GEB extract in normal and MCAO rats (UPLC-MS/MS, non-compartmental)
# experimental-setup: plasma, MCAO rats, oral GEB extract 4.8 g/kg, n = 8

Examples with answers:
molecule	endpoint-result
O=C(CC(O)(CC(=O)OCc1ccc(O[C@@H]2O[C@H](CO)[C@@H](O)[C@H](O)[C@H]2O)cc1)C(=O)O)OCc1ccc(O[C@@H]2O[C@H](CO)[C@@H](O)[C@H](O)[C@H]2O)cc1	41.5 ± 15.7 ng·h/mL
O=C(O)CC(O)(CC(=O)OCc1ccc(O[C@@H]2O[C@H](CO)[C@@H](O)[C@H](O)[C@H]2O)cc1)C(=O)OCc1ccc(O[C@@H]2O[C@H](CO)[C@@H](O)[C@H](O)[C@H]2O)cc1 (stereo partly drawn)	123.7 ± 38.8 ng·h/mL
N[C@@H](CCC(=O)N[C@@H](CSCc1ccc(O)cc1)C(=O)NCC(=O)O)C(=O)O [4-HBG, S-(4-hydroxybenzyl) glutathione]	129.1 ± 52.8 ng·h/mL
O=C(O)CC(O)(CC(=O)OCc1ccc(O[C@@H]2O[C@H](CO)[C@@H](O)[C@H](O)[C@H]2O)cc1)C(=O)O (stereo partly drawn)	1,147.5 ± 530.4 ng*h/mL
OCc1ccc(O[C@@H]2O[C@H](CO)[C@@H](O)[C@H](O)[C@H]2O)cc1	4,914.0 ± 728.3 ng*h/mL

Now, please, on to the next molecule.
Entry under test: O=C(CC(O)(CC(=O)OCc1ccc(O[C@@H]2O[C@H](CO)[C@@H](O)[C@H](O)[C@H]2O)cc1)C(=O)OCc1ccc(O[C@@H]2O[C@H](CO)[C@@H](O)[C@H](O)[C@H]2O)cc1)OCc1ccc(O[C@@H]2O[C@H](CO)[C@@H](O)[C@H](O)[C@H]2O)cc1 . Its AUC0−∞ was 85.9 ± 25.0 ng·h/mL

====

# assay-protocol: Plasma pharmacokinetics of GEB constituents after oral GEB extract in normal and MCAO rats (UPLC-MS/MS, non-compartmental)
# experimental-setup: plasma, MCAO rats, oral GEB extract 4.8 g/kg, n = 8
reported-property: CLz/F (mL/min/kg)
Dear colleague, please return just the value in mL/min/kg, with no unit written.

Past entries and their recorded results:
compound	CLz/F (mL/min/kg)
OCc1ccc(O[C@@H]2O[C@H](CO)[C@@H](O)[C@H](O)[C@H]2O)cc1	53.3
O=C(O)CC(O)(CC(=O)OCc1ccc(O[C@@H]2O[C@H](CO)[C@@H](O)[C@H](O)[C@H]2O)cc1)C(=O)OCc1ccc(O[C@@H]2O[C@H](CO)[C@@H](O)[C@H](O)[C@H]2O)cc1 (stereo partly shown)	5497
N[C@@H](CCC(=O)N[C@@H](CSCc1ccc(O)cc1)C(=O)NCC(=O)O)C(=O)O [4-HBG, S-(4-hydroxybenzyl) glutathione]	1050

// below: CLz/F requested for another compound
According to the records, this compound O=C(CC(O)(CC(=O)OCc1ccc(O[C@@H]2O[C@H](CO)[C@@H](O)[C@H](O)[C@H]2O)cc1)C(=O)O)OCc1ccc(O[C@@H]2O[C@H](CO)[C@@H](O)[C@H](O)[C@H]2O)cc1 displays CLz/F of 3078

====

# assay-protocol: in vivo
# experimental-setup: male, Sprague-Dawley, rat, plasma, po, 4.8 g/kg
Label label 1 when MRT last >= 2 h; otherwise label 0.

Recorded results for 4 molecules are shown here.
molecule	class-name
O=C(O)CC(O)(CC(=O)OCc1ccc(O[C@@H]2O[C@H](CO)[C@@H](O)[C@H](O)[C@H]2O)cc1)C(=O)OCc1ccc(O[C@@H]2O[C@H](CO)[C@@H](O)[C@H](O)[C@H]2O)cc1 (some centres unmarked)	label 0
O=C(O)CC(O)(CC(=O)OCc1ccc(O[C@@H]2O[C@H](CO)[C@@H](O)[C@H](O)[C@H]2O)cc1)C(=O)O (some centres unmarked)	label 1
O=C(CC(O)(CC(=O)OCc1ccc(O[C@@H]2O[C@H](CO)[C@@H](O)[C@H](O)[C@H]2O)cc1)C(=O)O)OCc1ccc(O[C@@H]2O[C@H](CO)[C@@H](O)[C@H](O)[C@H]2O)cc1	label 0
N[C@@H](CCC(=O)N[C@@H](CSCc1ccc(O)cc1)C(=O)NCC(=O)O)C(=O)O [4-HBG, S-(4-hydroxybenzyl) glutathione]	label 1

Answer whether MRT last of O=C(CC(O)(CC(=O)OCc1ccc(O[C@@H]2O[C@H](CO)[C@@H](O)[C@H](O)[C@H]2O)cc1)C(=O)OCc1ccc(O[C@@H]2O[C@H](CO)[C@@H](O)[C@H](O)[C@H]2O)cc1)OCc1ccc(O[C@@H]2O[C@H](CO)[C@@H](O)[C@H](O)[C@H]2O)cc1 is greater than or equal to 2 h.
label 0

====

# assay-protocol: in vivo
# experimental-setup: male, Sprague-Dawley, rat, in vivo, po, 4.8 g/kg
reported-property: Vd/F (L/kg)
State just the number; it will be interpreted in L/kg.

According to the records, this molecule OCc1ccc(O[C@@H]2O[C@H](CO)[C@@H](O)[C@H](O)[C@H]2O)cc1 [GAS, gastrodin] displays Vd/F of 2

====

# assay-protocol: in vivo
# experimental-setup: male, Sprague-Dawley, rat, in vivo, po, 1200 mg/kg
reported-property: AUC0-t (ng·h/mL)
Could you give me the number in ng·h/mL? Just the number is fine.

Per the record, OCc1ccc(O[C@@H]2O[C@H](CO)[C@@H](O)[C@H](O)[C@H]2O)cc1 [GAS, gastrodin] has AUC0-t of 6620
